Entries annotated with measured viability, T/C
- Test system: KRAS PDC multicell spheroid viability;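 also: drug exposure lasted seven days; 100% = DMSO vehicle wells and lower means fewer viable cells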
- METHOD_SUMMARY: Anticancer human tumor 521955-158-R6-J3-PDC patient-derived pancreatic carcinoma cell line growth inhibition [KRAS2]
- ASSAY_CONTEXT: second compound 1 µM; first compound 1 µM; stronger effect = lower value
Respond numerically; units are % and should not be typed.

Use the examples below as a reference point.
COMPOUND | TARGET_OF_ASSAY | viability, T/C, %
CC1COCCN1c1cc(-c2ccnn2C)c2ccnc(-c3ccn[nH]3)c2n1 (stereo not given) + CNCc1ccccc1-c1csc(C(C)Nc2nc(C)nc3cc(OC)c(OC)cc23)c1 | KRAS PDC multicell spheroid viability | 55.1
CC(C)NCC(C(=O)N1CCN(c2ncnc3c2C(C)CC3O)CC1)c1ccc(Cl)cc1 (stereo not given) + CNCc1ccccc1-c1csc(C(C)Nc2nc(C)nc3cc(OC)c(OC)cc23)c1 | KRAS PDC multicell spheroid viability | 64.3
CC(C)NCC(C(=O)N1CCN(c2ncnc3c2C(C)CC3O)CC1)c1ccc(Cl)cc1 (stereo not given) + C=CC(=O)N1CCN(c2nc(=O)n(-c3c(C)ccnc3C(C)C)c3nc(-c4c(O)cccc4F)c(F)cc23)C(C)C1 | KRAS PDC multicell spheroid viability | 69.7
COC(=O)c1ccc2c(C(=Nc3ccc(N(C)C(=O)CN4CCN(C)CC4)cc3)c3ccccc3)c(O)[nH]c2c1 + CC1OCC2(CCN(c3cnc(Sc4ccnc(N)c4Cl)c(N)n3)CC2)C1N | KRAS PDC multicell spheroid viability | 95.6

Now take the following compound into account.
Exercise: Enter measured viability, T/C, system KRAS PDC multicell spheroid viability, for the compound shown: CC1OCC2(CCN(c3cnc(Sc4ccnc(N)c4Cl)c(N)n3)CC2)C1N (stereo not given) + C=CC(=O)N1CCN(c2nc(=O)n(-c3c(C)ccnc3C(C)C)c3nc(-c4c(O)cccc4F)c(F)cc23)C(C)C1;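 also: drug exposure lasted seven days; 100% = DMSO vehicle wells and lower means fewer viable cells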
Solution: 90.4
